Test: small-molecule microarray binders of probe aCHRDL2, primary screen, biochemical, biotinylated probe, 635/667 nm fluorescence (AID 1100)
Conditions: higher = more signal
Mark true for reported composite z-score of 0.1 or greater; mark false for anything smaller.

- O=C1OCCC=C[C@H]2OC34C=CCN(CCN5CCOCC5)C(=O)[C@H]3N(CCCO)C(=O)[C@@H]4C12 (some centres not stated): true

Query: Exam item: decide whether the reported composite z-score for COCCOC(=O)N1C(=O)[C@@]2(c3cc(C#CC4(O)CCCCCC4)ccc31)[C@H](c1ccc(OCCO)cc1)N1[C@H](c3ccccc3)[C@H](c3ccccc3)OC(=O)[C@H]1[C@@H]2C(=O)N1CCCCCCC1 is at least 0.1.
Reply: true

* * *

Target: Neurogenic locus notch homolog protein 2 (Homo sapiens) (UniProt Q04721)
Sequence (Q04721 whole entry, looked up): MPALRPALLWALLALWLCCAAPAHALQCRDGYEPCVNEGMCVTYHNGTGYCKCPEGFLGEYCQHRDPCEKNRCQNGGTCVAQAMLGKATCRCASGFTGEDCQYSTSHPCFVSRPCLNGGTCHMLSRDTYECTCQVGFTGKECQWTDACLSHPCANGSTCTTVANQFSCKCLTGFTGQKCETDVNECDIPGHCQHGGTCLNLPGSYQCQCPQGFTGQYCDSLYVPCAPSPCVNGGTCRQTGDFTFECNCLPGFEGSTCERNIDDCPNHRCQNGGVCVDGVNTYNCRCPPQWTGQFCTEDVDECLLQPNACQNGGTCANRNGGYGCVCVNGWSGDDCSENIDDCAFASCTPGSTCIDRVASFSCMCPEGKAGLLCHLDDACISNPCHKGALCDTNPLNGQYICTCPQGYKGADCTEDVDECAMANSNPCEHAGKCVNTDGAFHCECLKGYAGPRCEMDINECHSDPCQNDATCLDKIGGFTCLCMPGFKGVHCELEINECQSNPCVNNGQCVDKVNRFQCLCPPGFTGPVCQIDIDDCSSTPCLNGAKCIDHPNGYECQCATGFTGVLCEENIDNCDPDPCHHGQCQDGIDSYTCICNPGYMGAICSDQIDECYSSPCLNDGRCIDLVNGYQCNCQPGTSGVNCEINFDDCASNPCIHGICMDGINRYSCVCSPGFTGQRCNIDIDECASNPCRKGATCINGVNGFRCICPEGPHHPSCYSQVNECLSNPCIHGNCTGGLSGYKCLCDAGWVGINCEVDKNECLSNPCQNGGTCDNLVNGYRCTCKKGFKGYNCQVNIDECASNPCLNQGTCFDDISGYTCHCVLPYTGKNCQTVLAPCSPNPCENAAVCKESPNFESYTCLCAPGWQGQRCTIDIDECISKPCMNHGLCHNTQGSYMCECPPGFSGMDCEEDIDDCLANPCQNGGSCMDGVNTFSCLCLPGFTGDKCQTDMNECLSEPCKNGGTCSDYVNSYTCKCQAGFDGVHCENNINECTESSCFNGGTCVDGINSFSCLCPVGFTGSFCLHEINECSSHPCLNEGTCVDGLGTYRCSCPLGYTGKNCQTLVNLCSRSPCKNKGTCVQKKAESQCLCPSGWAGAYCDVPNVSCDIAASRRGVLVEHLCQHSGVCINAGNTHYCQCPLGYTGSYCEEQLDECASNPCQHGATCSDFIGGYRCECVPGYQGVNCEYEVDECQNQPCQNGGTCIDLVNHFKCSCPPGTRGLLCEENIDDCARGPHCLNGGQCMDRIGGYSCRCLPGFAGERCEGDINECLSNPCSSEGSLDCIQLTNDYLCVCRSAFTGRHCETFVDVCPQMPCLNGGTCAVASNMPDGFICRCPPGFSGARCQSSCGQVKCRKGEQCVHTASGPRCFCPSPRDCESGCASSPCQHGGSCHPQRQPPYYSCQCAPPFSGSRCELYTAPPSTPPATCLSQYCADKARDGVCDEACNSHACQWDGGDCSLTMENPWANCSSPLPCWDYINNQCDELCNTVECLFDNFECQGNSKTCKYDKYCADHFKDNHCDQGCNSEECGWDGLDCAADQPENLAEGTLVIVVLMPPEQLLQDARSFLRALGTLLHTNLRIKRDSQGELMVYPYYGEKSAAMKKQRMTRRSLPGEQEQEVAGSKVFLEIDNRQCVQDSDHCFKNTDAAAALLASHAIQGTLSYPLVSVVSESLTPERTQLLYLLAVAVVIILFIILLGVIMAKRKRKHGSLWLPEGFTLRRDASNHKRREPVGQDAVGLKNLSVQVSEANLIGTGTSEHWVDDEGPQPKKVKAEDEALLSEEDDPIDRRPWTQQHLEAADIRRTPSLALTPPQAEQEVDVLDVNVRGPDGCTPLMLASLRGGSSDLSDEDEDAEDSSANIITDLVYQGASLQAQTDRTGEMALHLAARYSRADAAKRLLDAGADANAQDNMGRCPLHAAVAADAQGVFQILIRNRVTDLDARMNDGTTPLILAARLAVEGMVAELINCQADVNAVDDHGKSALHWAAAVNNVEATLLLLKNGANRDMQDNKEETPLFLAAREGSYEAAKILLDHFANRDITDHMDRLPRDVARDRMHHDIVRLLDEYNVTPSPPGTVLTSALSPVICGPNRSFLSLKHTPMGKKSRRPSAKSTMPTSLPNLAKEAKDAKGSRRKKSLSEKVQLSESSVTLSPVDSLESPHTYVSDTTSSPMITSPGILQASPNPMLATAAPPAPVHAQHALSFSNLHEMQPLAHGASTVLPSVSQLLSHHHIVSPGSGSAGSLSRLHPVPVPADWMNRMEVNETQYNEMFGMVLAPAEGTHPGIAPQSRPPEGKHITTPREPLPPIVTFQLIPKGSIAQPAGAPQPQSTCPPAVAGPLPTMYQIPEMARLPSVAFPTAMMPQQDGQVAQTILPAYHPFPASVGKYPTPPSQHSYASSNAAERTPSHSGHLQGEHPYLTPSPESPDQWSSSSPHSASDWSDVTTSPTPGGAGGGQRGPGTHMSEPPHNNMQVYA
Experiment: Notch2 binders on small-molecule microarrays, primary screen, biochemical, small-molecule microarray, 635 nm fluorescence, stem cell growth factors (AID 1073)
Details: Notch2 binding, higher = more signal
assay_metric: composite z-score
Number only, no unit.

These recorded examples may help you get a feel for the data.
- CC(C)[C@@H](C(=O)O)n1cc(-c2ccccc2)nn1: 0.964
- CC(C)C[C@@H]1NC(=O)[C@H]2C[C@@H](C(=O)NCCCCCNC(=O)CS)[C@@H](c3ccc(O)cc3)N2C1=O: 0.74
- C=CCC(OC(C)=O)[C@@H]1[C@@H](N(Cc2cc3ccccc3o2)C(=O)c2cccc3ccccc23)c2cc(OCCCO)ccc2N1C(=O)c1ccc2ccccc2c1 (stereo partly drawn): -0.0361
- CC(C)C[C@@H]1NC(=O)[C@@H]2C[C@H](C(=O)NCCCC[N+](C)(C)C)[C@H](c3ccc(O)cc3)N2C1=O: 0.113
- CC(C)(C)N1CC=CC23O[C@@H]4/C=C\CCCOC(=O)C4[C@H]2C(=O)N(CCCCCCO)[C@@H]3C1=O (stereo partly drawn): -1.12

Query: Any idea what composite z-score was measured for CC(C)C(=C=CC[C@@H](O)c1ccccc1OCCO)C[C@@H](O)c1cc(Cl)cc(Cl)c1O ?
Reply: 1.16

Query: Item: CN(C)C(=O)[C@]1(Cc2ccccc2CN=[N+]=[N-])N=C(c2ccc(OCCCO)cc2)O[C@@H]1c1ccccc1N=[N+]=[N-]
Reply: 1.49

Query: Item: CC(C)CNC(=O)[C@@H]1c2ccccc2C(=O)N(C2Cc3ccccc3C2)[C@H]1c1ccc(CO)cc1
Reply: -0.51

* * *

Biological target: Homeobox protein Hox-A13 (Mus musculus)
Test: inhibitors of HoxA13-DNA binding, primary screen, biochemical, fluorescence polarization, labeled oligonucleotide (AID 1185)
Conditions: 15 min, higher = more signal, called active from +8 up or from −8 down
# Lookup of reported z-score keyed by entry
Number only, no unit.

These recorded examples may help you get a feel for the data.
- C=CC[C@@]1(C(=O)O)N=C(c2ccc(OCCCO)cc2)O[C@@H]1c1ccccc1CN=[N+]=[N-]: -6.29
- O=C1C2C=CC(C(O)c3cccs3)N(Nc3ccccc3)C2C(=O)N1c1ccccc1 (stereo not drawn): -2.56
- COCCOC(=O)N1C(=O)[C@@]2(c3cc(C#CCNC(N)=O)ccc31)[C@H](C(=O)NC[C@H](O)c1ccccc1)[C@H]1C(=O)O[C@H](c3ccccc3)[C@H](c3ccccc3)N1[C@@H]2c1ccc(OCCO)cc1: -1.46
- COCCOC(=O)N1C(=O)[C@@]2(c3cc(C#CC4=CCCCC4)ccc31)[C@H](c1ccccc1OCCO)N1[C@H](c3ccccc3)[C@H](c3ccccc3)OC(=O)[C@H]1[C@@H]2C(N)=O: -0.721
- C=C(/C(=C/C[C@@H](OC(C)=O)c1ccccc1OCCO)c1cc(C(=O)OC)ccc1OC)C(C)C: -4.71
- COC(=O)C(CC#Cc1ccc2c(c1)[C@]1(C(=O)N2)[C@H](c2ccc(O)cc2)N2[C@H](c3ccccc3)[C@H](c3ccccc3)OC(=O)[C@H]2[C@@H]1C(=O)N1CCc2cc(OC)c(OC)cc2C1)C(=O)OC: -2.32

Query: Any idea what z-score was measured for CCOC(=O)C[C@H]1[C@H](OC(=O)Cc2ccc3c(c2)OCO3)[C@@H](NC(=O)c2ccccc2)c2cc(OCCCO)ccc2N1C(=O)Cc1ccc(OC)cc1 ?
Reply: -3

Query: Item: CCOC(=O)C1=CC[C@@H](c2ccccc2)N(S(=O)(=O)c2ccc(C)cc2)[C@H]1C#N
Reply: -3.58

Query: Item: COCCOC(=O)N1C(=O)[C@@]2(c3cc(C#Cc4ccc(OC)cc4)ccc31)[C@H](C(=O)N1CCCCCCC1)[C@H]1C(=O)O[C@H](c3ccccc3)[C@H](c3ccccc3)N1[C@@H]2c1ccccc1OCCO
Reply: 4.81
